Organism: Bos taurus
Assay: Percentage inhibition of colchicine binding to tubulin by compound was evaluated
Design: concentration or dose not given beside the values
Cond: concentration not given here
Class satisfied: inhibition at least 60%. Class not satisfied: inhibition below 60%.

{"columns": ["Test smiles", "Class"],
 "data": [
  ["COc1cc(C(=O)c2ccc3c(c2)OCO3)cc(OC)c1OC", "not satisfied"],
  ["COc1ccc(Cc2cc(OC)c(OC)c(OC)c2)cc1O", "satisfied"],
  ["COc1ccc(Cc2cc(OC)c(OC)c(OC)c2)cc1", "not satisfied"],
  ["COc1ccc(/C=C\\c2cc(OC)c(OC)c(OC)c2)cc1O", "satisfied"],
  ["COc1ccc(C(=O)c2cc(OC)c(OC)c(OC)c2)cc1OP(=O)([O-])O.[Na+]", "not satisfied"],
  ["COc1cc(OC)cc(C(=O)c2cc(OC)c(OC)c(OC)c2)c1", "not satisfied"]
]}

Would you say COc1ccc(C(=O)c2cc(OC)c(OC)c(OC)c2)cc1OC(C)=O shows inhibition at minimum 60%?
satisfied

Would you say COc1ccc(/C=C\c2cc(OC)c(OC)c(OC)c2)cc1 shows inhibition at minimum 60%?
satisfied

Would you say COc1ccc(C(=O)c2cc(OC)c(OC)c(OC)c2)cc1O shows inhibition at minimum 60%?
satisfied
